The reported numbers originate from patent US20240270762A1.

Provide the reported MIC of each item.
System: A. baumannii CDC-0036
Assay: microbe, parasite or virus in culture
Format: cell-based
Details: Acinetobacter baumannii, CDC0036, read-out: MIC, A. baumannii CDC-0036

(Q) Dear colleague, I am looking for the recorded MIC of the following compound: O=C(O)c1c(F)ccc2c1OB(O)[C@@H](NC(=O)[C@H](NC(=O)N1CCN(C3CCN(C(=O)Nc4cccc(O)c4)CC3)C1=O)c1cc(F)c(O)c(O)c1Cl)C2
(A) < 1 µg/mL

(Q) And for O=C(O)c1c(F)ccc2c1OB(O)[C@@H](NC(=O)C(NC(=O)N1CCN(Cc3cc(F)c(O)c(O)c3Cl)C(=O)C1=O)c1ccc(P(=O)(O)O)cc1)C2 (some centres unmarked) ?
(A) < 1 µg/mL

(Q) Next compound up: O=C(NCCCN1CCN(C(=O)NC(C(=O)N[C@H]2Cc3ccc(F)c(C(=O)O)c3OB2O)c2cc(F)c(O)c(O)c2Cl)C(=O)C1=O)c1c(F)ccc(O)c1Cl (some centres unmarked)
(A) 2 to 4 µg/mL

(Q) And what about the compound O=C(NCCN1CCN(C(=O)N[C@@H](C(=O)N[C@H]2Cc3ccc(F)c(C(=O)O)c3OB2O)c2cc(F)c(O)c(O)c2Cl)C(=O)C1=O)Nc1cccnc1 ?
(A) 2 to 4 µg/mL

(Q) Lookup O=C(NCCCN1CCN(C(=O)NC(C(=O)N[C@H]2Cc3ccc(F)c(C(=O)O)c3OB2O)c2cc(F)c(O)c(O)c2Cl)C(=O)C1=O)c1c(F)cc(O)cc1Cl (some centres unmarked)
(A) 2 to 4 µg/mL

(Q) Here is the next compound: O=C(NCCCN1CCN(C(=O)NC(C(=O)N[C@H]2Cc3ccc(F)c(C(=O)O)c3OB2O)c2cc(F)c(O)c(O)c2Cl)C(=O)C1=O)Nc1ccncc1 (some centres unmarked)
(A) 2 to 4 µg/mL

(Q) Repeat with O=C(NCCN1CCN(C(=O)N[C@@H](C(=O)N[C@H]2Cc3ccc(F)c(C(=O)O)c3OB2O)c2cc(F)c(O)c(O)c2Cl)C(=O)C1=O)Nc1ccncc1
(A) 2 to 4 µg/mL

(Q) Further, for O=C(O)c1c(F)ccc2c1OB(O)[C@@H](NC(=O)C(NC(=O)N1CCN(C3CCN(C(=O)c4cc(O)cc(O)c4)CC3)C(=O)C1=O)c1cc(F)c(O)c(O)c1Cl)C2 (some centres unmarked) ?
(A) < 1 µg/mL

(Q) Same lookup for O=C(O)c1c(F)ccc2c1OB(O)[C@@H](NC(=O)[C@H](NC(=O)N1CCN(C3CCN(C(=O)c4ccc(F)c(O)c4Cl)CC3)C1=O)c1cc(F)c(O)c(O)c1Cl)C2 , please.
(A) < 1 µg/mL

(Q) Consider next the compound O=C(NCCCN1CCN(C(=O)NC(C(=O)N[C@H]2Cc3ccc(F)c(C(=O)O)c3OB2O)c2cc(F)c(O)c(O)c2Cl)C(=O)C1=O)c1ccc(F)c(O)c1F (some centres unmarked) in the same way.
(A) 2 to 4 µg/mL

(Q) Let us now turn to O=C(NCCCN1CCN(C(=O)NC(C(=O)N[C@H]2Cc3ccc(F)c(C(=O)O)c3OB2O)c2cc(F)c(O)c(O)c2Cl)C(=O)C1=O)c1cc(O)cc(F)c1 (some centres unmarked)
(A) 2 to 4 µg/mL
